Hey, just so you know, these numbers are from the supplement of paper PMC11246515.

assay: total protein half-life in vivo (active degradation + dilution); higher = more stable protein; settings: E. coli NCM3722 delta-lon; growth: N-lim chemostat; doubling time 6 h
READOUT KIND: total protein half-life in vivo (h)
Give the number; h is assumed, so skip it.

Challenge: Identify measured total protein half-life in vivo corresponding to MKIVIAPDSFKESLSAEKCCQAIKAGFSTLFPDANYICLPIADGGEGTVDAMVAATGGNIVTLEVCGPMGEKVNAFYGLTGDGKTAVIEMAAASGLMLVAPEKRNPLLASSFGTGELIRHALDNDIRHIILGIGGSATVDGGMGMAQALGVRFLDADGQALAANGGNLARVASIEMDECDPRLANCHIEVACDVDNPLVGARGAAAVFGPQKGATPEMVEELEQGLQNYARVLQQQTEINVCQMAGGGAAGGMGIAAAVFLNADIKPGIEIVLNAVNLAQAVQGAALVITGEGRIDSQTAGGKAPLGVASVAKQFNVPVIGIAGVLGDGVEVVHQYGIDAVFSILPRLAPLAEVLASGETNLFNSARNIACAIKIGQGIKN
Response given: 4.62

----------
Measured total protein half-life in vivo by item
experiment: total protein half-life in vivo (active degradation + dilution); higher = more stable protein; conditions: E. coli NCM3722 delta-lon; growth: N-lim chemostat; doubling time 6 h
Give the number; h is assumed, so skip it.

Sample records with total protein half-life in vivo:
| RESIDUE SEQUENCE | MEASUREMENT UNIT | total protein half-life in vivo |
| --- | --- | --- |
| MHINIAWQDVDTVLLDMDGTLLDLAFDNYFWQKLVPETWGAKNGVTPQEAMEYMRQQYHDVQHTLNWYCLDYWSEQLGLDICAMTTEMGPRAVLREDTIPFLEALKASGKQRILLTNAHPHNLAVKLEHTGLDAHLDLLLSTHTFGYPKEDQRLWHAVAEATGLKAERTLFIDDSEAILDAAAQFGIRYCLGVTNPDSGIAEKQYQRHPSLNDYRRLIPSLM | h | 2.37 |
| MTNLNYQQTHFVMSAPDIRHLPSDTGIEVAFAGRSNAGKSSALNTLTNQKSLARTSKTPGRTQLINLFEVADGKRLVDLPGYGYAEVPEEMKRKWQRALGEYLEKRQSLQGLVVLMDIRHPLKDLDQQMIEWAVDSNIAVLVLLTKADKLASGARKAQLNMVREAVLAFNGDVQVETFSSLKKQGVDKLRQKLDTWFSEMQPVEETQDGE [P0A6P7] | h | 5.83 |
| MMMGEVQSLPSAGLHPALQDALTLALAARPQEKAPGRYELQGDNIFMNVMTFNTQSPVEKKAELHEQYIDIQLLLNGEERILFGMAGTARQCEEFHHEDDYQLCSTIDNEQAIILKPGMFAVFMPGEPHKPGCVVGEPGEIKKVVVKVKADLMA | h | 5.28 |

Next sequence, please.
Challenge: Identify measured total protein half-life in vivo corresponding to MPKLRLIGLTLLALSATAVSHAEETRYVSDELNTWVRSGPGDHYRLVGTVNAGEEVTLLQTDANTNYAQVKDSSGRTAWIPLKQLSTEPSLRSRVPDLENQVKTLTDKLTNIDNTWNQRTAEMQQKVAQSDSVINGLKEENQKLKNELIVAQKKVDAASVQLDDKQRTIIMQWFMYGGGVLGLGLLLGLVLPHLIPSRKRKDRWMN [P0ADT8]
Response given: 6.43
